- Test system: Pseudomonas aeruginosa
- experiment: In vitro bactericidal assay, control strain
- Type: cell-based
- settings: metal ion added to PRE
readoutName: activity of the metal ion solution upon addition to PRE

[
  {
    "molecule": "O=S(=O)([O-])[O-].[Zn+2]",
    "valueMeasured": "little or no activity"
  },
  {
    "molecule": "O=S(=O)([O-])[O-].[Mn+2]",
    "valueMeasured": "little or no activity"
  },
  {
    "molecule": "O=S(=O)([O-])[O-].[Fe+2] [FeSO4, iron (II) sulfate]",
    "valueMeasured": "highest activities"
  },
  {
    "molecule": "O=S(=O)([O-])[O-].[Cu+2] [CuSO4, copper (II) sulfate]",
    "valueMeasured": "highest activities"
  }
]
